Hey, just so you know, these numbers are from ChEMBL document CHEMBL3525925.

# Test system: Liver
# Assay procedure: Drug level in CD-1 mouse liver microsomes treated with 10 uM 20(S)-ginsenoside Rh2 for 60 mins by MS2 spectra
# Type: ADME
# Particulars: 1 h
Reported property: Drug metabolism

CC(O)(CO)[C@H]1CC[C@@](C)([C@H]2CC[C@]3(C)[C@@H]2[C@H](O)C[C@@H]2[C@@]4(C)CC[C@H](O[C@@H]5O[C@H](CO)[C@@H](O)[C@H](O)[C@H]5O)C(C)(C)[C@@H]4CC[C@]23C)O1 (some centres not stated)    metabolite_detected
CC(C)(O)[C@H]1CC[C@@](C)([C@H]2CC[C@]3(C)[C@@H]2[C@H](O)C[C@@H]2[C@@]4(C)CC[C@H](O[C@@H]5O[C@H](CO)[C@@H](O)[C@H](O)[C@H]5O)C(C)(C)[C@@H]4CC[C@]23C)O1    metabolite_detected
